Listing of entries alongside the reported melting point.

Examples with their reported melting point follow.
> print(dat)
                                   molecule   result.value
1  N#CCCNC(=O)c1cccc(-c2cccc3cc(Cc4cccc(C(F)(F)F)c4)sc23)c1    95 to 98 °C
2    CCC1(CC)OC(c2ccc(S(C)(=O)=O)cc2)=CC1=O  109 to 110 °C
3  Cn1c(=O)c(-c2c(Cl)cccc2Cl)cc2cnc(NCCCN3CCOCC3)nc21  140 to 142 °C
4      O=C1NCCC[C@@H]1NS(=O)(=O)c1ccc(F)cc1  153 to 156 °C
5  COc1ccc(-c2ccc(C(=O)O)cc2)c2c1OC(C)(C)C2  249 to 252 °C
6  C[C@H](NC(=O)OCc1ccccc1)C(=O)N1CCC[C@H]1C(=O)Nc1ccccc1  138 to 139 °C
7            COc1c(O)ccc(C(=O)c2ccccc2)c1Cl  123 to 125 °C
8  CCOC(=O)C=CC(=O)N1CC1C#N (stereo not given)    54 to 56 °C

Please report the recorded melting point for "Cn1c(=O)c2c(-c3nc(C4CC4)no3)ncn2c2cccnc21" .
266 to 269 °C

Need melting point, item "OCC(CO)(COCc1ccccc1)COCc1ccccc1"
73 °C
